experiment notes: Stability in plasma (unknown orgin) measured after 120 mins
Type: ADME, cell-free
test settings: read-out: Stability
# maps each entry to its remaining at 2 h
Report the figure in % without appending any unit label.

# compound, remaining at 2 h [%]
rows = [
    ("OCCCCCCCCc1ccc(CN2CCCCC2)c(O)c1", 97),
]

# context switch: different compound, same remaining at 2 h
Documented remaining at 2 h of OCCCCCCCCc1ccc(CN2CCCCCC2)c(O)c1 : 85

====

experiment notes: Solubility of compound in 5% DMSO/PBS solution
Type: physicochemical
attribute measured: solubility

Query OCCCCCCCCc1ccc(CN2CCCCC2)c(O)c1 yields solubility of < 3.9 mM

# solubility (compound: OCCCCCCCCc1ccc(CN2CCCCCC2)c(O)c1 ) is < 5 mM

====

experimental system: Acetylcholinesterase (Homo sapiens, UniProt P22303)
Sequence (P22303 whole entry): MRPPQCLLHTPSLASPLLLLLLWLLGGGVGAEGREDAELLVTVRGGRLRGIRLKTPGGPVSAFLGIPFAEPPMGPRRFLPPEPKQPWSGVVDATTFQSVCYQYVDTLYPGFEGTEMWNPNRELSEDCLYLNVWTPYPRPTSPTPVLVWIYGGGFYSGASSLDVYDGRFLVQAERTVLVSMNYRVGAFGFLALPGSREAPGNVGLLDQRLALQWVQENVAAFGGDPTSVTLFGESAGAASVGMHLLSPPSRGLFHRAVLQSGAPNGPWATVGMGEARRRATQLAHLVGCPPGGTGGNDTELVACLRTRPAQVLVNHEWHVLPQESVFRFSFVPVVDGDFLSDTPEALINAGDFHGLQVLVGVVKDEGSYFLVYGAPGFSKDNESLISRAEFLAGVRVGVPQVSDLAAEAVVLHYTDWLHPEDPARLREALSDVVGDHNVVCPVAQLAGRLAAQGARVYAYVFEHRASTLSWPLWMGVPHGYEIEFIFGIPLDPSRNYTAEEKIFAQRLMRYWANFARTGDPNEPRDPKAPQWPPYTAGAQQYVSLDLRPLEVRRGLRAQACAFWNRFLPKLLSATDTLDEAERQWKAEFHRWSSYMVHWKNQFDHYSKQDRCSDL
experiment notes: Inhibition of AChE in human serum at 20 uM by Ellman's method
Type: cell-free
attribute measured: inhibition (%)
Please give a number only; it is taken to be in %.

# example entries with known answers
# compound, uom, inhibition
data = [
    ("CCN(CC)Cc1ccc(CCCCCCCCO)cc1O", "%", 12.4),
    ("CN(Cc1ccccc1)Cc1ccc(CCCCCCCCO)cc1O", "%", 19.4),
    ("OCCCCCCCCc1ccc(CN2CCCC2)c(O)c1", "%", 31.1),
    ("OCCCCCCCCc1ccc(CN2CCSCC2)c(O)c1", "%", 12.1),
]

Turning to the following molecule.
Form field inhibition for item OCCCCCCCCc1ccc(CN2CCCCC2)c(O)c1 on Acetylcholinesterase (Homo sapiens, UniProt P22303): 40.5

====

IC50: recorded values
experimental system: Cholinesterase (Homo sapiens, UniProt P06276)
Sequence (P06276 whole entry): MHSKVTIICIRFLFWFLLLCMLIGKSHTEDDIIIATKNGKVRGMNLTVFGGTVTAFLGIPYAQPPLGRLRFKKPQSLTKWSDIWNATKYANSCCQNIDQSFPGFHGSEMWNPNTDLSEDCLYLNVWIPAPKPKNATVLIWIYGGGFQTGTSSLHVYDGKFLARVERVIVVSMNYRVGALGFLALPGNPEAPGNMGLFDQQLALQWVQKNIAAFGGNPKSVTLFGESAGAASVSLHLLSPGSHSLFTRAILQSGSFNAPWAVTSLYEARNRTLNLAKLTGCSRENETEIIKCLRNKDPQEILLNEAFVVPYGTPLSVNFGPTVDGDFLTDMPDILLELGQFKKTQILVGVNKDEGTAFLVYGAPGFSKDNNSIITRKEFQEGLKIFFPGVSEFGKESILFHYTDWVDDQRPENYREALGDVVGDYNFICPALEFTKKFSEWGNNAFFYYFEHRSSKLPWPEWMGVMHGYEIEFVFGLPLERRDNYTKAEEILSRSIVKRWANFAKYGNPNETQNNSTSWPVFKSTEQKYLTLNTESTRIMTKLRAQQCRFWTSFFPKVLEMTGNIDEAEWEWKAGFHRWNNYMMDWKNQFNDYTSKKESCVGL
experiment notes: Inhibition of BChE in human serum by Ellman's method
I only need the number, in µM, no unit after it.

Reference set (3 entries):
# compound, IC50 [µM]
records = [
    ("CCN(CC)Cc1ccc(CCCCCCCCO)cc1O", 17.5),
    ("OCCCCCCCCc1ccc(CN2CCCCC2)c(O)c1", 6.12),
    ("OCCCCCCCCc1ccc(CN2CCCCCC2)c(O)c1", 4.62),
]

IC50 in this record for OCCCCCCCCc1ccc(CN2CCCC2)c(O)c1 : 13.3

CN(Cc1ccccc1)Cc1ccc(CCCCCCCCO)cc1O has a reported IC50 of 6.74

====

experimental system: Cholinesterase (Homo sapiens)
experiment notes: Inhibition of BChE in human serum at 20 uM by Ellman's method
Format: cell-free
Below, each entry is listed alongside its reported inhibition.

Past entries and their recorded results:
# compound, experimental system, inhibition
data = [
    ("CCN(CC)Cc1ccc(CCCCCCCCO)cc1O", "Cholinesterase (Homo sapiens)", "50.5%"),
    ("OCCCCCCCCc1ccc(CN2CCNCC2)c(O)c1", "Cholinesterase (Homo sapiens)", "17.7%"),
    ("OCCCCCCCCc1ccc(CN2CCCCCC2)c(O)c1", "Cholinesterase (Homo sapiens)", "77.1%"),
    ("OCCCCCCCCc1ccc(CN2CCSCC2)c(O)c1", "Cholinesterase (Homo sapiens)", "16.6%"),
    ("CN(Cc1ccccc1)Cc1ccc(CCCCCCCCO)cc1O", "Cholinesterase (Homo sapiens)", "68.3%"),
]

Lab book: inhibition of OCCCCCCCCc1ccc(CN2CCOCC2)c(O)c1 noted as < 10%

What the record says about CC(=O)N1CCN(Cc2ccc(CCCCCCCCO)cc2O)CC1 : inhibition is < 5%

inhibition for OCCCCCCCCc1ccc(CN2CCCCC2)c(O)c1 is 73.5%

inhibition recorded for this compound, OCCCCCCCCc1ccc(CN2CCCC2)c(O)c1 , is 59%

Lab note: measured inhibition of CN1CCN(Cc2ccc(CCCCCCCCO)cc2O)CC1 was 10.6%

====

Form field: pIC50 (one value per entry).
experimental system: Acetylcholinesterase (Homo sapiens)
experiment notes: Inhibition of AChE in human serum by Ellman's method
Scale for pIC50: -log10 of concentration given in mol/L; no unit attached.

For reference, reported pIC50 for OCCCCCCCCc1ccc(CN2CCCC2)c(O)c1 stands at 4.32

According to the records, this compound OCCCCCCCCc1ccc(CN2CCCCCC2)c(O)c1 displays pIC50 of 3.11

// pIC50 lookup, compound = OCCCCCCCCc1ccc(CN2CCCCC2)c(O)c1 , result: 4.52

====

experimental system: UniProt:P22303
experiment notes: Inhibition of AChE in human serum at 20 uM by Ellman's method
Type: cell-free
Listing of recorded inhibition by entry.

See these solved cases before continuing.
# compound, inhibition
rows = [
    ("OCCCCCCCCc1ccc(CN2CCCCCC2)c(O)c1", "< 10%"),
    ("CN1CCN(Cc2ccc(CCCCCCCCO)cc2O)CC1", "< 5%"),
    ("CC(=O)N1CCN(Cc2ccc(CCCCCCCCO)cc2O)CC1", "< 10%"),
]

// field: inhibition; key: OCCCCCCCCc1ccc(CN2CCOCC2)c(O)c1 ; value = < 5%

compound OCCCCCCCCc1ccc(CN2CCNCC2)c(O)c1 , inhibition observed: < 10%
